# PROCEDURE_TEXT: chemical genetic growth profiling, strain panel (AID 1159580);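 also: tested at 20 µM; growth read once vehicle control cultures reached saturation at 30 °C; 1 = growth at the plate median or of vehicle wells; lower values mean less growth of the strain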
# ASSAY_CONDITIONS: S. cerevisiae deletion strains, growth OD, locus YBL105C, strain PKC1, stronger effect = lower value
The campaign covered roughly 5,500 compounds. About 2,000 (36%) were called active. Another 18% or so got no clear call; they are omitted. Some of the results follow.
Catalogue of normalized growth readings, one per entry.

Answered examples (6):
[
  {
    "COMPOUND": "O=C(Nc1ccc(F)cc1)c1cc(Br)ccc1O",
    "MEASUREMENT_TYPE": "normalized growth",
    "ASSAY_RESULT": "0.907 (inactive)"
  },
  {
    "COMPOUND": "S=C(NCc1cccs1)Nc1cc(Cl)cc(Cl)c1",
    "MEASUREMENT_TYPE": "normalized growth",
    "ASSAY_RESULT": "0.947 (inactive)"
  },
  {
    "COMPOUND": "COC(=O)c1cccc(NS(=O)(=O)c2ccc(Cl)c(Cl)c2)c1",
    "MEASUREMENT_TYPE": "normalized growth",
    "ASSAY_RESULT": "0.969 (inactive)"
  },
  {
    "COMPOUND": "CC(C)Sc1c(Cl)cccc1NC(=O)Nc1ccccc1",
    "MEASUREMENT_TYPE": "normalized growth",
    "ASSAY_RESULT": "0.97 (inactive)"
  },
  {
    "COMPOUND": "O=S(=O)(Nc1c(F)cccc1F)c1ccc(Cl)c(Cl)c1",
    "MEASUREMENT_TYPE": "normalized growth",
    "ASSAY_RESULT": "0.946 (inactive)"
  },
  {
    "COMPOUND": "Cc1cc(Sc2c([N+](=O)[O-])cc(C(F)(F)F)cc2[N+](=O)[O-])c(Cl)cc1Cl",
    "MEASUREMENT_TYPE": "normalized growth",
    "ASSAY_RESULT": "1 (inactive)"
  }
]

Next, consider the following compound.
Query: // query normalized growth value for entry "COc1ccc(OC)c2nc3c(nc12)C(=O)c1ccccc1-3"
Reply: 0.969 (inactive)

---

# PROCEDURE_TEXT: chemical genetic growth profiling, strain panel (AID 1159580)
# ASSAY_CONDITIONS: S. cerevisiae deletion strains, growth OD, locus YLL026W, stronger effect = lower value
Out of some 5,500 compounds screened, about 2,000 (36%) were called active. Not shown: some 18% with an inconclusive outcome. The list shows a part of the results.
As shown below, each of these compounds has a reported normalized growth value.
In your answer, state the number alone without any accompanying words.

In the examples that follow, each entry is paired with its recorded normalized growth.
[
  {
    "COMPOUND": "NNCc1ccccc1",
    "MEASUREMENT_TYPE": "normalized growth",
    "ASSAY_RESULT": 1
  },
  {
    "COMPOUND": "O=C(O)C1=C(CSc2nnnn2CS(=O)(=O)O)CS[C@@H]2C(NC(=O)[C@H](O)c3ccccc3)C(=O)N12 (stereo not given in full)",
    "MEASUREMENT_TYPE": "normalized growth",
    "ASSAY_RESULT": 0.991
  },
  {
    "COMPOUND": "O=C1C=C(O)c2ccccc2C1=O",
    "MEASUREMENT_TYPE": "normalized growth",
    "ASSAY_RESULT": 0.952
  }
]

Query: Which normalized growth is reported for this compound? C=C(C)C1Cc2c(ccc3c(=O)c4c(oc23)COc2cc(OC)c(OC)cc2-4)O1 (stereo not given)
Reply: 0.993

Query: What does the data say about its normalized growth? Entry: CNC(C)[C@@H]1CC[C@@H](N)[C@@H](OC2[C@@H](N)C[C@@H](N)[C@H](OC3OC[C@](C)(O)[C@H](NC)[C@H]3O)[C@H]2O)O1 (stereo not given in full)
Reply: 0.996

Query: Any idea what normalized growth was measured for "O=C1c2ccccc2C(=O)c2ccccc21" ?
Reply: 0.993

Query: Need normalized growth of "CNC(C)(C)Cc1ccccc1" , thanks.
Reply: 1.02

Query: Given "CC(=O)NS(=O)(=O)c1ccc(N)cc1" , state its recorded normalized growth.
Reply: 1.01

Query: Give its normalized growth value. Item: CC(=O)O[C@H]1CC2CCC3C(CC[C@@]4(C)C3C[C@H]([N+]3(C)CCCCC3)[C@@H]4OC(C)=O)[C@@]2(C)C[C@@H]1N1CCCCC1 (stereo not given in full)
Reply: 1.02

Query: What value of normalized growth has been recorded for this entry: Oc1cc2c(cc1O)C(c1ccccc1)CNCC2 (stereo not given)
Reply: 1

---

# PROCEDURE_TEXT: chemical genetic growth profiling, strain panel (AID 1159580);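 also: tested at 20 µM; growth read once vehicle control cultures reached saturation at 30 °C; 1 = growth at the plate median or of vehicle wells; lower values mean less growth of the strain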
# ASSAY_CONDITIONS: S. cerevisiae deletion strains, growth OD, locus YER111C, strain swi4, stronger effect = lower value
About 2,000 (36%) of roughly 5,500 compounds were called active. Roughly 18% stayed inconclusive and do not appear here. The list shows a part of the results.
MEASUREMENT_TYPE: normalized growth

[
  {
    "COMPOUND": "CCCC(=O)Nc1ccc(OCC(O)CNC(C)C)c(C(C)=O)c1 (stereo not given)",
    "normalized growth": "1.01 (inactive)"
  },
  {
    "COMPOUND": "Cc1cc(O)c2c(c1)C(=O)c1cccc(O)c1C2=O",
    "normalized growth": "1 (inactive)"
  }
]

Query: Which normalized growth value belongs to Oc1cc2c(cc1O)C(c1ccccc1)CNCC2 (stereo not given) ?
Reply: 0.993 (inactive)

Query: Query (compound): "OC[C@H]1O[C@@H](Oc2ccc(O)cc2)[C@H](O)[C@@H](O)[C@@H]1O" ; field requested: normalized growth
Reply: 1.01 (inactive)

Query: Look up normalized growth: "O=C1c2cccc(O)c2C(=O)c2c(O)cccc21"
Reply: 0.956 (inactive)

---

# PROCEDURE_TEXT: chemical genetic growth profiling, strain panel (AID 1159580);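 also: tested at 20 µM; growth read once vehicle control cultures reached saturation at 30 °C; 1 = growth at the plate median or of vehicle wells; lower values mean less growth of the strain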
# ASSAY_CONDITIONS: S. cerevisiae deletion strains, growth OD, locus YNL183C, strain NPR1
About 2,000 (36%) of roughly 5,500 compounds were called active. Another 18% or so got no clear call; they are omitted. Cut-off read from the data, not from the text of the source: active = normalized growth mostly below about 0.91 (no sharp cut-off); inconclusive = no clear call, values can overlap the other calls; inactive = mostly above about 0.92. Some of the results follow.
Please state which outcome applies, choosing from Y for active, N for inactive

Here are 4 compounds together with their reported answers.
[
  {
    "COMPOUND": "CCC[C@@H]1C[C@@H](C(=O)N[C@H]([C@H]2O[C@H](SC)[C@H](O)[C@@H](O)[C@H]2O)[C@H](C)O)N(C)C1",
    "CLASS_ASSIGNMENT": "N"
  },
  {
    "COMPOUND": "CC(C)(C)c1ccc(-c2cc(NC(=O)c3ccc(Cl)cc3)n[nH]2)cc1",
    "CLASS_ASSIGNMENT": "N"
  },
  {
    "COMPOUND": "O=[N+]([O-])c1ccc(NCc2ccc(Cl)c(Cl)c2)nc1",
    "CLASS_ASSIGNMENT": "N"
  },
  {
    "COMPOUND": "COc1cc(C2CC(=S)Nc3ccccc3S2)cc(OC)c1OC (stereo not given)",
    "CLASS_ASSIGNMENT": "N"
  }
]

Query: Recorded test call requested for "S=C(NCCc1csc2ccccc12)Nc1ccc(Cl)cc1"
Reply: N

Query: Recorded test outcome, item "C/C(=C\CO)CC[C@H](C)CCC[C@H](C)CCCC(C)C"
Reply: N

Query: Any idea what this test logged for "Oc1cccc2cccnc12" ?
Reply: N

---

# PROCEDURE_TEXT: chemical genetic growth profiling, strain panel (AID 1159580);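 also: tested at 20 µM; growth read once vehicle control cultures reached saturation at 30 °C; 1 = growth at the plate median or of vehicle wells; lower values mean less growth of the strain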
# ASSAY_CONDITIONS: S. cerevisiae deletion strains, growth OD, locus YDL101C, strain DUN1, stronger effect = lower value
The campaign covered roughly 5,500 compounds. About 2,000 (36%) were called active. Inconclusive results (about 18%) are left out. Some of the results follow.
Below, each of the molecules is paired with its reported normalized growth value.
Enter the number alone.

[
  {
    "MOLECULE": "COC(=O)c1cc(OC)c(=O)c2c(OC)c(OC)ccc2c1",
    "ASSAY_RESULT": 1.01
  }
]

Query: What does the data say about its normalized growth? Entry: O=C1CSC(c2cccnc2)N1c1ccc(C2CCCCC2)cc1 (stereo not drawn)
Reply: 1.03

Query: For the molecule shown here, "COC(=O)c1cc(I)c(OC(C)=O)c(I)c1" , give the reported normalized growth.
Reply: 0.935

Query: Dear colleague, I am looking for the recorded normalized growth of the following molecule: "O=C(CNc1cccc(Cl)c1)c1ccc(Cl)cc1"
Reply: 0.952

Query: # input molecule: "CN1CCN(C2=Nc3cc(Cl)ccc3Nc3ccccc32)CC1" ; wanted: its normalized growth
Reply: 0.996

Query: Fill in: normalized growth of O=C1CSC(c2cccnc2)N1c1ccc(Cl)cc1 (stereo not drawn) is ___
Reply: 0.978

Query: Give the measured normalized growth of "CON" .
Reply: 1.01

Query: Given the molecule CC1SC(c2cccnc2)N(c2ccc(Cl)cc2)C1=O (stereo not drawn) , what is its reported normalized growth?
Reply: 0.928
